measurement-parameters: in n-propyl acetate, 323.15 K
observed-property: solubility (mole fraction)

Entry `Nc1nc2ccc(OC(F)(F)F)cc2s1` ; solubility (mole fraction) = 0.463

----------
measurement-parameters: in n-propanol, 308.15 K
observed-property: solubility (mole fraction)
Keep the answer to the number alone.

Entry `Nc1nc2ccc(OC(F)(F)F)cc2s1` ; solubility (mole fraction) = 0.267

----------
measurement-parameters: in ethanol, 288.15 K
observed-property: solubility (mole fraction)
Keep the answer to the number alone.

Entry `Nc1nc2ccc(OC(F)(F)F)cc2s1` ; solubility (mole fraction) = 0.198

----------
measurement-parameters: in n-butanol, 303.15 K
observed-property: solubility (mole fraction)
Keep the answer to the number alone.

Entry `Nc1nc2ccc(OC(F)(F)F)cc2s1` ; solubility (mole fraction) = 0.254
